System name: OPRD1 (Homo sapiens)
Construct: purchased Promega (in-house HiBiT-GPCR construct library, NanoBRET)
Sequence (P41143 whole entry): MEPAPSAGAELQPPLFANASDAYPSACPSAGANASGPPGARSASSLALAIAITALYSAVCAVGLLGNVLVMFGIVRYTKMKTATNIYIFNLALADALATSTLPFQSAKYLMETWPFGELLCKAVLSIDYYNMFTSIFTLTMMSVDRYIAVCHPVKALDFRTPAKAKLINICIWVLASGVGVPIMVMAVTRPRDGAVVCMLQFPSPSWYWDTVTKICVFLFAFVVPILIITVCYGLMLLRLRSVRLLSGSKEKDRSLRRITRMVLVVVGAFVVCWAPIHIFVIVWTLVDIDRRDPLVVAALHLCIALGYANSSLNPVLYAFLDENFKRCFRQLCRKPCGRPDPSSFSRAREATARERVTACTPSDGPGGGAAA
Method description: NanoBRET screen HiBiT-OPRD1 in HEK293
Format: binding
Stated conditions: OPRD1; tracer 0.1μM
Please go through the items and note down their NanoBRET Fold Response.

Molecule: Cc1nc2n(c(=O)c1CCN1CCC(c3noc4cc(F)ccc34)CC1)CCCC2OC(=O)NCCOCCOCCOCCOCCNC(=O)CCc1ccc2n1[B-](F)(F)[N+]1=C(c3ccc[nH]3)C=CC1=C2 (centres unmarked) [Risperidone-2-NB590]
System name: OPRD1 (Homo sapiens)
Result: 0.99
//
Molecule: CCCn1c(=O)c2[nH]c(-c3ccc(OCC(=O)NCCNC(=O)CCOCCNC(=O)c4ccc(CNC(=O)CCc5ccc6n5[B-](F)(F)[N+]5=C(c7ccc[nH]7)C=CC5=C6)cc4)cc3)nc2n(CCC)c1=O [XAC-3-NB590]
System name: OPRD1 (Homo sapiens)
Result: 0.97
//
Molecule: CC(C)N(CC[C@H](c1ccccc1)c1cc(CCNC(=O)CCOCCOCCOCCOCCNC(=O)CCc2ccc3n2[B-](F)(F)[N+]2=C(c4ccc[nH]4)C=CC2=C3)ccc1O)C(C)C [Tolterodine-2-NB590]
System name: OPRD1 (Homo sapiens)
Result: 1.00

// input: 2 molecules below; output: NanoBRET Fold Response for each
1. O=C(CCc1ccc2n1[B-](F)(F)[N+]1=C(c3ccc[nH]3)C=CC1=C2)NCCOCCOCCNC(=O)OCCOCCN1CCN(C2=Nc3ccccc3Sc3ccccc32)CC1 [Quetiapine-a-2-NB590]
2. CC(C)N(CC[C@H](c1ccccc1)c1cc(CCNC(=O)c2ccc(CNC(=O)CCc3ccc4n3[B-](F)(F)[N+]3=C(c5ccc[nH]5)C=CC3=C4)cc2)ccc1O)C(C)C [Tolterodine-BZ-NB590]

Output line:
1: 1.11; 2: 1.06

* * *

System name: OPRM1 (Homo sapiens)
Construct: purchased Promega (in-house HiBiT-GPCR construct library, NanoBRET)
Sequence (P35372 whole entry): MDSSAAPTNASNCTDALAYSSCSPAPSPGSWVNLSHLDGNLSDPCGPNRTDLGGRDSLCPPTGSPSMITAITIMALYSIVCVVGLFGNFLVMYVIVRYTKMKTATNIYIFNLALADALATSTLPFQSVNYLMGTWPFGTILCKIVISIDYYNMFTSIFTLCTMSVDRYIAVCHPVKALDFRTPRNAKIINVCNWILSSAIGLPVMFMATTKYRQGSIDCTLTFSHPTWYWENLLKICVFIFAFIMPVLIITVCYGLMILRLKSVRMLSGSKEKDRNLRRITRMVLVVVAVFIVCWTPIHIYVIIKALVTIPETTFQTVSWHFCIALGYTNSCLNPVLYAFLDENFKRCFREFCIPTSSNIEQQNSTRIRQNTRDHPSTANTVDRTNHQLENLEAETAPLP
Method description: NanoBRET screen HiBiT-OPRM1 in HEK293
Format: binding
Stated conditions: OPRM1; tracer 0.1μM
Would you kindly list NanoBRET Fold Response for each of these molecules?
Give bare numbers.

Molecule: CC(C)N(CC[C@H](c1ccccc1)c1cc(CCNC(=O)c2ccc(CNC(=O)CCc3ccc4n3[B-](F)(F)[N+]3=C(c5ccc[nH]5)C=CC3=C4)cc2)ccc1O)C(C)C
Quantity kind: NanoBRET Fold Response
Numeric readout: 0.95

Parameter requested: NanoBRET Fold Response. Apply to each item below.
1. Cc1cc2c(s1)Nc1ccccc1N=C2N1CCN(CCCNC(=O)CCOCCOCCOCCOCCNC(=O)CCc2ccc3n2[B-](F)(F)[N+]2=C(c4ccc[nH]4)C=CC2=C3)CC1
2. Cc1nc2n(c(=O)c1CCN1CCC(c3noc4cc(F)ccc34)CC1)CCCC2OC(=O)NCCOCCOCCOCCOCCNC(=O)CCc1ccc2n1[B-](F)(F)[N+]1=C(c3ccc[nH]3)C=CC1=C2 (stereo not drawn)

Output line:
0.96
0.92

* * *

System name: SSTR5 (Homo sapiens, UniProt P35346)
Construct: purchased Promega (in-house HiBiT-GPCR construct library, NanoBRET)
Sequence (P35346 whole entry): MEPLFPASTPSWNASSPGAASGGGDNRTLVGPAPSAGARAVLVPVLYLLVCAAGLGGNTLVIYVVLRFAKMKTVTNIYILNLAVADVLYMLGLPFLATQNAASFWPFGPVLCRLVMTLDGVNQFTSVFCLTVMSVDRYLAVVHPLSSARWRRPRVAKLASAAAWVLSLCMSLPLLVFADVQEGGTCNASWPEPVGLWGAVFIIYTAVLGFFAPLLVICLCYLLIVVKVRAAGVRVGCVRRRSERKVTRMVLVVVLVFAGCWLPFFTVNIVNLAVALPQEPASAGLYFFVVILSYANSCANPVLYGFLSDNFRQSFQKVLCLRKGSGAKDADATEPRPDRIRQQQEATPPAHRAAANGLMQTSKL
Method description: NanoBRET screen HiBiT-SSTR5 in HEK293
Assay type: binding
Stated conditions: SSTR5; tracer 0.1μM
Provide the reported NanoBRET Fold Response of each item.

Compound: Cc1nc2n(c(=O)c1CCN1CCC(c3noc4cc(F)ccc34)CC1)CCCC2OC(=O)NCCOCCOCCOCCOCCNC(=O)CCc1ccc2n1[B-](F)(F)[N+]1=C(c3ccc[nH]3)C=CC1=C2 (centres unmarked)
System name: SSTR5 (Homo sapiens, UniProt P35346)
NanoBRET Fold Response: 1.01
--
Compound: Cc1cc2c(s1)Nc1ccccc1N=C2N1CCN(CCCNC(=O)CCOCCOCCOCCOCCNC(=O)CCc2ccc3n2[B-](F)(F)[N+]2=C(c4ccc[nH]4)C=CC2=C3)CC1
System name: SSTR5 (Homo sapiens, UniProt P35346)
NanoBRET Fold Response: 1.01
--
Compound: CC(C)N(CC[C@H](c1ccccc1)c1cc(CCNC(=O)c2ccc(CNC(=O)CCc3ccc4n3[B-](F)(F)[N+]3=C(c5ccc[nH]5)C=CC3=C4)cc2)ccc1O)C(C)C
System name: SSTR5 (Homo sapiens, UniProt P35346)
NanoBRET Fold Response: 1.08
--
Compound: O=C(CCc1ccc2n1[B-](F)(F)[N+]1=C(c3ccc[nH]3)C=CC1=C2)NCc1ccc(C(=O)NCCOCCC(=O)N[C@@H]2CC[C@@]3(O)[C@H]4Cc5ccc(O)c6c5[C@@]3(CCN4CC3CC3)[C@H]2O6)cc1 [Naltrexone-3-NB590]
System name: SSTR5 (Homo sapiens, UniProt P35346)
NanoBRET Fold Response: 0.96
--
Compound: O=C(CCc1ccc2n1[B-](F)(F)[N+]1=C(c3ccc[nH]3)C=CC1=C2)NCCOCCOCCNC(=O)OCCOCCN1CCN(C2=Nc3ccccc3Sc3ccccc32)CC1
System name: SSTR5 (Homo sapiens, UniProt P35346)
NanoBRET Fold Response: 1.03

Look up NanoBRET Fold Response for the entries below, preserving their order.
1. CC(C)N(CC[C@H](c1ccccc1)c1cc(CCNC(=O)CCOCCOCCOCCOCCNC(=O)CCc2ccc3n2[B-](F)(F)[N+]2=C(c4ccc[nH]4)C=CC2=C3)ccc1O)C(C)C
2. COc1ccccc1N1CCN(CCCCN2C(=O)c3ccc(CNC(=O)CCOCCNC(=O)c4ccc(CNC(=O)CCc5ccc6n5[B-](F)(F)[N+]5=C(c7ccc[nH]7)C=CC5=C6)cc4)cc3C2=O)CC1
3. O=C(CCOCCOCCOCCOCCNC(=O)CCc1ccc2n1[B-](F)(F)[N+]1=C(c3ccc[nH]3)C=CC1=C2)NCCCN1CCN(C2=Nc3ccccc3Oc3ccc(Cl)cc32)CC1
4. N#CN=C(NCCCOc1cccc(CN2CCCCC2)c1)NCCNC(=O)CCOCCOCCOCCOCCNC(=O)CCc1ccc2n1[B-](F)(F)[N+]1=C(c3ccc[nH]3)C=CC1=C2

Output line:
1: 0.93; 2: 1.02; 3: 1.10; 4: 0.97

Please go through the list and note NanoBRET Fold Response for each compound.
1. CCCn1c(=O)c2[nH]c(-c3ccc(OCC(=O)NCCNC(=O)CCOCCNC(=O)c4ccc(CNC(=O)CCc5ccc6n5[B-](F)(F)[N+]5=C(c7ccc[nH]7)C=CC5=C6)cc4)cc3)nc2n(CCC)c1=O
2. COc1ccccc1N1CCN(CCCCN2C(=O)c3ccc(CNC(=O)CCOCCOCCOCCOCCNC(=O)CCc4ccc5n4[B-](F)(F)[N+]4=C(c6ccc[nH]6)C=CC4=C5)cc3C2=O)CC1

Output line:
1: 0.99; 2: 0.98

Ref: paper PMC8151276
